The measurements presented in this section are drawn from PubChem BioAssay (NCI).

Test system: 786-0 renal
Test: NCI-60 one-dose screen, 48 h
Details: 10 µM unless noted
The panel holds about 83,000 compounds, 20% with a hit somewhere; the sample as a whole holds those more often. Active and inactive are the calls of the source. Rule for the calls: active = growth percent below 10; inactive = the rest.
API: response.call in active, inactive

// below: answered molecules
Molecule	Class Assignment
CCNc1nnc(COc2ccc(CNC(=O)CCCC/C=C/C(C)C)cc2OC)o1	inactive
CC(=O)/C(=C\c1c(-c2ccccc2)[nH]c2ccccc12)S(=O)(=O)c1ccccc1	active
O=C1Nc2c(c(=O)n(-c3ccccc3)c3ccccc23)C(c2ccc(Cl)cc2)N1 (centres undefined)	inactive

Attention now shifts to the item below.
Lab log entry: `CCCCCCCCCCCCOC(=N)N(C)C` — outcome as called in the assay? inactive

###

Tested on: HCT-15 colon
Experiment: NCI-60 one-dose screen, 48 h (100 = growth as untreated, 0 = no growth, -100 = all killed)
Settings: 10 µM unless noted
About 83,000 compounds went through this panel and 20% of them were active in at least one assay; those are over-represented in the sample as a whole. Calls of active or inactive are those of the source. How the source made its calls: active means growth percent below 10; inactive means the rest.
Measured Metric: growth

Query Smiles	growth
COc1ccc2nc3cc(Cl)ccc3c(NCCCNC(C)=O)c2c1	23.6% (inactive)
CCOC(=O)CSSCC(=O)OCC	102% (inactive)
Cc1nc2c(nnn2-c2ccccc2)c2nc(-c3ccccc3)oc(=O)c12	101% (inactive)

Entry `Nc1nc(-c2cccc(Br)c2)cc(-c2cc3ccccc3oc2=O)n1` , growth reported as 106% (inactive)

The measured growth associated with `Cc1c(CN(C)C)cc(C(C)C)cc1C(C)C` reads 113% (inactive)

// field: growth; key: `CCN(CC)c1ccc2nc3ccc(N=Nc4ccc(O)cc4)cc3[n+](-c3ccccc3)c2c1` ; value = 65.6% (inactive)

###

Test system: A549/ATCC NSCLC
Experiment: NCI-60 one-dose screen, 48 h (100 = growth as untreated, 0 = no growth, -100 = all killed)
Conditions: 10 µM unless noted
About 83,000 compounds went through this panel and 20% of them were active in at least one assay; those are over-represented in the sample as a whole.
Examples of compounds with documented growth follow.
Supply the numeric figure in %, leaving out any unit text.

Compound	Unit String	growth
CCOc1ccc(N(C)c2ccc(/C=C/C3=[N+](C)c4ccccc4C3(C)C)cc2)cc1	%	9.51
C=CCC(CCC(CC=C)C(=O)OCC)C(=O)OCC (stereo not given)	%	106
COc1ccc(-c2nc(Nc3nc4ccccc4[nH]3)nc(N)c2C#N)cc1	%	106
CC([C@H]1CCC2C3CCC4C[C@@H](N)CC[C@]4(C)C3CC[C@@]21C)N(C)C (stereo not given in full)	%	86.1
COc1cc(/C=C/C(=O)/C=C(/C=C/c2ccc(OC(C)=O)c(OC)c2)OB(F)F)ccc1OC(C)=O	%	82.7

growth value, target or system A549/ATCC NSCLC, for `CN1C(=O)C(=Cc2coc3ccc(Br)cc3c2=O)C(=O)N(C)C1=O` : 97.8

# `CCCCCCCCCCCCCCCCCC1=NCCN1CCNC(C)=O` with A549/ATCC NSCLC: growth is 79.3

###

System: NCI-H322M lung
Assay: NCI-60 one-dose screen, 48 h
Conditions: 10 µM unless noted
About 83,000 compounds went through this panel and 20% of them were active in at least one assay; those are over-represented in the sample as a whole. Calls of active or inactive are those of the source. The calls were made as follows: active = growth percent below 10; inactive = the rest.
Permitted responses: active, inactive

// below: answered molecules
Molecule	Class Assignment
Cc1ncc(C(=O)Nc2ccc(CN3CCN(C)CC3)c(C(F)(F)F)c2)cc1C#Cc1c(N)ncc2ccc(F)cc12	active
CCCNC(=O)Oc1ccc(/C(=C(/C)Cc2ccc(OC)cc2)c2ccc(OCCN3CCCC3)cc2)cc1	inactive
Cc1c([C@H](C(Cl)Cl)[C@H](O)[C@H]2C[C@H](C)C(=O)O2)ccc2c1C(=O)[C@H]1[C@H]2C[C@@H](Br)[C@@]23O[C@@H](CO[C@H]2O)CC13C (some centres undefined)	inactive
CCOC(=O)C1CCCN1C(=O)C1(NC(C)=O)CCCC1 (centres undefined)	inactive
Brc1ccc(-c2nc3ccccc3s2)cc1	inactive
O=C(N/N=C/c1coc2ccccc2c1=O)c1cc2oc(-c3ccccc3)cc2[nH]1	inactive

# lookup: test call for `CC(C)(C)OC(=O)N1C/C(=C\c2ccccc2)C(=O)/C(=C/c2ccccc2)C1` inactive

Please state the recorded outcome for this molecule: `O=C1C(Cl)=C(SC2=NCCN2)C(=O)c2ccccc21` inactive

I would be grateful if you could indicate the recorded call for `COc1cc(CNC(=O)CCCC/C=C/C(C)C)ccc1OCc1nnc(Nc2ccccc2F)o1` . inactive
